# ASSAY_METHOD_TEXT: Body weight during 28-day oral supplementation
# Type: in vivo, Swiss Albino mice
# STATED_CONDITIONS: Week 2; oral once daily; mean ± SD, n = 8 mice
Each item that follows carries a reported body weight.
Give the quantity in grams, number only.

Some compounds with recorded body weight:
>>> number("C[N+](C)(C)CCOP(=O)([O-])OC[C@H](O)CO")
27.05
>>> number("CCNC(=O)CC[C@H](N)C(=O)O")
26.76
>>> number("NCCS(=O)(=O)O")
26.99

Field: next compound
The compound Cn1c(=O)[nH]c2ncn(C)c2c1=O showed body weight equal to 26.95

----------
# Test system: male Swiss Albino mice
# ASSAY_METHOD_TEXT: Muscle weight (gastrocnemius, soleus) after 28 days
# Assay type: in vivo
# STATED_CONDITIONS: after 28 days of supplementation; vs vehicle control
MEASURED_ENDPOINT: increase in soleus muscle mass compared to control

>>> result("Cn1c(=O)[nH]c2ncn(C)c2c1=O")
"41%"
>>> result("NCCS(=O)(=O)O")
"no effect on muscle mass"
>>> result("C[N+](C)(C)CCOP(=O)([O-])OC[C@H](O)CO")
"no effect on muscle mass"

----------
# ASSAY_METHOD_TEXT: Clinical biochemical profiles of serum
# Assay type: in vivo, Swiss Albino mice
# STATED_CONDITIONS: serum at end of 28-day treatment; mean ± SD, n = 8
Each item that follows carries a reported ALP.
Give the quantity in U/L, number only.

>>> number("NCCS(=O)(=O)O")
180.4
>>> number("Cn1c(=O)[nH]c2ncn(C)c2c1=O")
179.4
>>> number("CCNC(=O)CC[C@H](N)C(=O)O")
177.1

Field: next compound
The compound C[N+](C)(C)CCOP(=O)([O-])OC[C@H](O)CO showed ALP equal to 179.3

----------
# ASSAY_METHOD_TEXT: Body weight during 28-day oral supplementation
# Format: in vivo, Swiss Albino mice
# STATED_CONDITIONS: Week 1; oral once daily; mean ± SD, n = 8 mice
MEASURED_ENDPOINT: body weight (grams)
Give the quantity in grams, number only.

Some molecules with recorded body weight:
>>> number("CCNC(=O)CC[C@H](N)C(=O)O [L-Theanine, L-theanine]")
24.20
>>> number("Cn1c(=O)[nH]c2ncn(C)c2c1=O [Paraxanthine, 1,7-dimethylxanthine]")
23.86

The molecule C[N+](C)(C)CCOP(=O)([O-])OC[C@H](O)CO [Alpha-GPC, L-alpha glycerylphosphorylcholine] showed body weight equal to 24.10

The molecule NCCS(=O)(=O)O [Taurine, taurine] showed body weight equal to 24.08

----------
Each item that follows carries a reported body weight.
# ASSAY_METHOD_TEXT: Body weight during 28-day oral supplementation
# Type: in vivo, Swiss Albino mice
# STATED_CONDITIONS: Week 3; oral once daily; mean ± SD, n = 8 mice
Give the quantity in grams, number only.

Some molecules with recorded body weight:
>>> number("C[N+](C)(C)CCOP(=O)([O-])OC[C@H](O)CO")
29.14
>>> number("NCCS(=O)(=O)O")
29.06
>>> number("CCNC(=O)CC[C@H](N)C(=O)O")
29.00

The molecule Cn1c(=O)[nH]c2ncn(C)c2c1=O showed body weight equal to 29.68

----------
# ASSAY_METHOD_TEXT: Body weight during 28-day oral supplementation
# Type: in vivo, Swiss Albino mice
# STATED_CONDITIONS: Basal; mean ± SD, n = 8 mice
MEASURED_ENDPOINT: body weight (grams)
Give the quantity in grams, number only.

Some compounds with recorded body weight:
>>> number("Cn1c(=O)[nH]c2ncn(C)c2c1=O")
22.01
>>> number("NCCS(=O)(=O)O")
22.50
>>> number("C[N+](C)(C)CCOP(=O)([O-])OC[C@H](O)CO")
22.50

Field: next compound
The compound CCNC(=O)CC[C@H](N)C(=O)O showed body weight equal to 22.41
